All figures here come from patent US11358931B2.

Assay: Pharmacokinetics in orchidectomized male rats (plasma, Day 14)
Format: in vivo
Details: rat, ORX male rats, PO, Day 14, 30 mg/kg
Procedure: In this assay, two-month old rats were acclimated in a vivarium for one week. After this acclimation period, rats were surgically orchidectomized under isoflurane anesthesia and left untreated for 14 days. After 14 days, animals were sorted into groups such that no statistically significant differences in mean body weights were observed. Rats began receiving treatment 14 days after the day of surgery. […] Peak pharmacokinetic (PK) parameters were calculated and rounded to three decimal places.
quantity: Tmax (h)
Answers are plain numbers, in h.

Look up Tmax: N#Cc1ccc(N2CCC[C@@H]2[C@@H](O)C(F)(F)F)cc1C(F)(F)F [Compound 102]
4.3
